Known DR2w2β2 binding data of a selection of sequences
- targetOrTestSystem: DRB5*0101 (DR2w2β2) (Homo sapiens, UniProt P01903+Q30154)
- Construct: expressed in transfected cells; host or cells: L416.3 (fibroblasts) or GM3107
- Format: binding
Simply state the number, no unit and no words.

Recorded DR2w2β2 binding data, per entry:
IQNHTLETV : -0.0005
VDLYLLMDC : -0.0005
LEEKAAKET : -0.0005
YGRLEIPAI : -0.0005

We now examine a further sequence.
DR2w2β2 binding data for LETVNISDV is -0.0005

====

Catalogue of DR5w12 binding data values
- targetOrTestSystem: DRB1*1201 (DR5w12) (Homo sapiens, UniProt P01903+P01911, A100R/A169T/D57E/D86V/F55L/H45Y/K41T/L162R/M171V/P40S/Q125H/Q178H/Q39Y/Q99D/R42G/S66L/T262R/V114A/V67L/W38E/Y59H/Y61H/Y89S)
- Construct: endogenous in cells; host or cells: Herluf
- methodDescription: HLA class II peptide binding assay
- testConditions: Table XIXb; DR5w12
Keep it simple and answer with nothing but the number.

YQNNIVDEI : 0.0001
FYFILVNLL : 0.0006
FQEYQCYGS : 0.0001

Lab book: DR5w12 binding data of YKFVVPGAA noted as 0.3500

The sequence listed as LTMSNVKNV has a reported DR5w12 binding data of 0.0001

response.value for VSTVLLGGV (field: DR5w12 binding data) = 0.0005

====

- targetOrTestSystem: HLA-A*0201 (Homo sapiens, UniProt P04439, D140Y/D185E/D98H/E176V/E277Q/G131W/G231S/I119V/I121R/I166T/I218V/L300P/L318F/N151K/N90K/P208A/P217A/Q86G/Q94H/R138H/R169H/T345S)
- methodDescription: HLA class I peptide binding assay
- testConditions: Malaria A02 motif peptides, Table VIII; unit not given
A*0201 (binding information): recorded values
Output: the number by itself.

Worked examples follow.
LIFFDLFLV : 0.0890
LAGGLALLA : 0.0001
SVLACLLGNV : 0.0022

Now look at this one.
LTMSNVKNV has a reported A*0201 (binding information) of 0.0010

====

- targetOrTestSystem: DRB1*0301 (DR3) (Homo sapiens, UniProt P01903+P01911, A100K/A102G/A103R/A169T/F55Y/I96L/K41T/L162R/M171V/P40S/Q125H/Q178H/Q39Y/R42S/S66N/T106N/T262R/W38E/Y61H)
- Construct: endogenous in cells; host or cells: MAT
- Sequence (P01911 30-266 W38E/Q39Y/P40S/K41T/R42S/F55Y/Y61H/S66N/I96L/A100K/A102G/A103R/T106N/Q125H/Q178H): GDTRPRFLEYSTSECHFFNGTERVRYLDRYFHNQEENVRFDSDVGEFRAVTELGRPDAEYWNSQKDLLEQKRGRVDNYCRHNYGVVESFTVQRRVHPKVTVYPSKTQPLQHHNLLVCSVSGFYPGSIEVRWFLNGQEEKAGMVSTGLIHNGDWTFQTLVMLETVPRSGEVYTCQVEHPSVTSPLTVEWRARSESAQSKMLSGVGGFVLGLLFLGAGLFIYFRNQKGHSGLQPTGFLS
- Sequence (P01903 26-254 partner): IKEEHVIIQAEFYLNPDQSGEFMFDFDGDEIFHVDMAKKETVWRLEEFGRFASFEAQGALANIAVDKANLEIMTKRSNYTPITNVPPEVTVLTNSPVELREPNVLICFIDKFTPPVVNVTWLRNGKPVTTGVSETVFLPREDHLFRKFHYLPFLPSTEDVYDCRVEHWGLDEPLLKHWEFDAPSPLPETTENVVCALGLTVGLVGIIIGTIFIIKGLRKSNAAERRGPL
- methodDescription: HLA class II peptide binding assay (pH 4.5)
- testConditions: Malaria DR3b motif peptides; unit not given
quantity: DR3 binding information
Give a plain numeric answer without units written out.

LGEEDKDLD : -0.0130

Lab note: measured DR3 binding information of FLKENKLNK was 0.0950

get_value(item= IKSNLRSGS , readout=DR3 binding information) returns 0.0050

Briefly, DR3 binding information measured for IEKTNRESI : 0.1300

get_value(item= IQDSLKESR , readout=DR3 binding information) returns 0.8400

The reported value for IKNSEKDEI in terms of DR3 binding information is -0.0017

Just so you know, measured DR3 binding information for ALLQVRKHL came out at -0.0033

Briefly, DR3 binding information measured for LPQDNRGNS : -0.0033
